- Assayed Target: FraB (Salmonella enterica, UniProt Q8ZLD0)
- Sequence (Q8ZLD0 entry or part of it): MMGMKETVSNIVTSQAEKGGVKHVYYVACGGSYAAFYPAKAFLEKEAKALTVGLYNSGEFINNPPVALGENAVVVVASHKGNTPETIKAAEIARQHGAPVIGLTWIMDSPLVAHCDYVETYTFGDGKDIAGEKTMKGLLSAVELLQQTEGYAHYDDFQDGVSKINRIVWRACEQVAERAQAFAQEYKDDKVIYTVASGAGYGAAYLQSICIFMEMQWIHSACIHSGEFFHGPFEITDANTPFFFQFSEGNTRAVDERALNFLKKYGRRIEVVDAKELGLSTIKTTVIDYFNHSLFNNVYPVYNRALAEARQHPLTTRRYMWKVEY
Endpoint Label: pKi
Please note pKi is a logarithmic value: minus log10 of concentration in mol/L. Answer with that number alone.

Look up and report pKi, with FraB (Salmonella enterica, UniProt Q8ZLD0) as system, for O=C(O)C[C@@H](O)[C@H](O)[C@H](O)COP(=O)(O)O [2-deoxy-6-P-GA, 2-deoxy-6-phosphogluconate]
5.48

Origin of the recorded values: paper PMC9609667
